Data provenance is PubChem BioAssay (NCI).

Assay procedure: NCI Yeast Anticancer Drug Screen. Data for the rad50 strain (AID 155);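 further: 0% = growth of vehicle-only cultures of the same strain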
Details: S. cerevisiae rad50 strain growth inhibition; at 50.0 µM; hits give high values
About 79,000 compounds went through this panel and 15% of them were active in at least one assay; those are over-represented in the sample as a whole. The source made the active and inactive calls. No stated cut-off is given here; in the data, active means growth inhibition above about 70%; inactive means the rest.
Experimental readout: growth inhibition

Query: Provide growth inhibition value for the following compound: CCCCCCCCCCCCCCCC(=O)N(CCCC)CCCC
Result: 3.55% (inactive)

Query: Give the measured growth inhibition for N#CCCC(CCC#N)(CCC(CCC#N)(CCC#N)[N+](=O)[O-])[N+](=O)[O-]
Result: -4.05% (inactive)

Query: For the compound Fc1cccc(-c2nnc(-c3cccc(F)c3)o2)c1 , give its measured growth inhibition value.
Result: 12.7% (inactive)

Query: Report measured growth inhibition; entry is O=C(O)c1c[nH]c(=O)[nH]c1=O.[Cu+2]
Result: -23.9% (inactive)

Query: Could you please provide reported growth inhibition for O=C(Nc1ccc(C(=O)O)cc1)Nc1nccs1 ? Thanks!
Result: 16.9% (inactive)

Query: Note growth inhibition for the compound shown: NC(CSC(=O)c1ccccc1)C(=O)O (stereo unspecified)
Result: -14.2% (inactive)

====

Assay procedure: NCI Yeast Anticancer Drug Screen. Data for the rad50 strain (AID 155);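 further: 0% = growth of vehicle-only cultures of the same strain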
Details: S. cerevisiae rad50 strain growth inhibition; at 50.0 µM; hits give high values
About 79,000 compounds went through this panel and 15% of them were active in at least one assay; those are over-represented in the sample as a whole.
Experimental readout: growth inhibition (%)
API: value field is a number in %; no unit string.

Query: Supply recorded growth inhibition for COC(=O)C1CC(=O)N(C)c2sc(C)c(C)c2C1=O (configuration not stated) here.
Result: 83.9

Query: Quickly give me recorded growth inhibition for O=C1CN(/N=C/c2ccc(-c3ccc(Cl)c(Cl)c3)o2)C(=O)N1
Result: 28.9

Query: Read off the recorded growth inhibition for Cc1ccccc1NC(=O)CC#N
Result: 8.15

Query: Determine its reported growth inhibition: N=c1nc2ccc3ccccc3c2nn1-c1ccc([N+](=O)[O-])cc1
Result: 88

Query: Tell us which growth inhibition value is on record for O=C(NCCN1CCCC1)Nc1ccccc1
Result: -3.2

Query: Tell me growth inhibition reported for CCc1ccccc1NC(=O)CCc1nc(=S)[nH][nH]1
Result: -24.8

Query: Using the record for Nc1cccc2c1C(=O)c1cccc(Nc3ccc4c(c3)C(=O)c3ccccc3C4=O)c1C2=O , state its measured growth inhibition.
Result: -2.95

Query: Tell us which growth inhibition value is on record for COC(=O)C1(C)CCCC2(C)C3CC4OC4(C(C)C)CC3(O)CCC12 (configuration not stated)
Result: -4.5

Query: Answer with the recorded growth inhibition for the compound listed here: CCOC(=O)C(Cc1cc(C)c(O)c(I)c1)NC(C)=O (configuration not stated)
Result: -18.4

Query: Tell me measured growth inhibition for CCCC(CCC)C(=O)O please.
Result: -18

Query: Fill in reported growth inhibition for this entry: CN(C)C(=O)NC(=S)N(C)C
Result: -4.05

Query: Answer with the recorded growth inhibition for the compound listed here: OC1COc2c3ccccc3nn2C1 (configuration not stated)
Result: -1.35

====

Assay procedure: NCI Yeast Anticancer Drug Screen. Data for the bub3 strain (AID 167)
Details: S. cerevisiae bub3 mutant strain, at 50.0 µM, hits give high values
The panel holds about 79,000 compounds, 15% with a hit somewhere; the sample as a whole holds those more often.
Experimental readout: growth inhibition (%)
Number in %, nothing else.

Query: Dear colleague, please send me the reported growth inhibition for Cc1ccc(-n2c(=O)nc([O-])[n+]3ccccc23)cc1 when you can.
Result: -3.75

Query: Hello, please tell me recorded growth inhibition for this one: COc1ccc2c(c1)CN(C)c1ccc(OC)cc1CN2C
Result: 12.5

Query: Give the reported growth inhibition for this molecule. O=C1OC(c2cccc3ccc(Br)cc23)c2ccccc21 (centres undefined)
Result: 16.1

Query: Give me measured growth inhibition, please, for this molecule: C=CCNC(=S)/N=C\c1c(C)[nH]n(-c2ccccc2)c1=O
Result: -17.6

Query: Provide only the value of recorded growth inhibition for COc1ccc(-c2c([O-])oc(-c3ccccc3)[n+]2C)cc1
Result: 3.1

Query: Indicate the recorded growth inhibition value for this molecule: CN(C)C(=S)Oc1ccc([N+](=O)[O-])cc1Cl
Result: -3.3

Query: Please list growth inhibition recorded for the molecule CCC(=N)C(c1ccccc1)(c1ccccc1)C(C)CN(C)C (centres undefined)
Result: -9.15

Query: Specify growth inhibition for Nc1c(Br)cc(Br)cc1-c1cc(Br)cc(Br)c1N and stop.
Result: 13.4

Query: Provide growth inhibition value for the following molecule: CP(=O)(CCSc1ccccc1)c1ccccc1 (centres undefined)
Result: -10.7

Query: Please report the measured growth inhibition for NC1=C(O)C(=O)C(c2ccccc2O)O1 (centres undefined)
Result: -18.6

Query: Answer with the recorded growth inhibition of COc1ccc(C(=O)/C=C/c2ccncc2)cc1OC only.
Result: 32.5

Query: Supply growth inhibition value. Item: O=C(O)CC1=C(c2ccccc2)C(O)(c2ccccc2)CC1=O (centres undefined)
Result: 11.2

Query: Tell me measured growth inhibition for O=C(NSNc1ccccc1)c1ccccc1 please.
Result: -0.6

Query: Identify measured growth inhibition associated with COc1ccc2c(c1)C/C(=C\c1ccc(O)c(OC)c1)C2=O
Result: 7.8

Query: Give the value of growth inhibition reported for the following: CCOC(=O)/C=C/c1nc(C(=O)OCC)c(C)c(=O)[nH]1
Result: 1.25

Query: Please supply the value of reported growth inhibition for the item O=C(O)CCSc1ccc([N+](=O)[O-])cc1
Result: -11.5

Query: Please give measured growth inhibition of the following entry: Cc1cccc(C)[n+]1[O-]
Result: 16.5

Query: Return growth inhibition (reported value) for this molecule: O=[N+]([O-])c1ccc(S(=O)(=O)N/N=C/C=C/c2ccccc2[N+](=O)[O-])cc1
Result: 16.4

Query: Report growth inhibition, nothing else, for this molecule: CN(C)c1ccc(S(=O)c2ccc(N(C)C)cc2)cc1
Result: -48.4

Query: Item CCC(=O)N1C(=O)OCC1C(C)C (centres undefined) : provide growth inhibition
Result: -9.35

Query: Note growth inhibition for the molecule shown: COc1cccc(NC(=O)C(=O)C2C=CCS2(=O)=O)c1 (centres undefined)
Result: -28.3

Query: Quote growth inhibition reported for CCCCCCCCCCCCCCCCS(=O)(=O)N/N=C(/c1ccc(Cl)cc1)N1CCCCC1 please.
Result: -10.2

Query: Please give measured growth inhibition of the following entry: COC(=O)C(C(=O)C(=O)Nc1ccc([N+](=O)[O-])cc1)c1nc2ccc([N+](=O)[O-])cc2[nH]c1=O (centres undefined)
Result: -0.85

Query: Respond only with growth inhibition recorded for c1ccc(P(CCCP(c2ccccc2)c2ccccc2)c2ccccc2)cc1
Result: -0.05

====

Assay procedure: NCI Yeast Anticancer Drug Screen. Data for the bub3 strain (AID 167)
Details: S. cerevisiae bub3 mutant strain, at 50.0 µM, hits give high values
The panel holds about 79,000 compounds, 15% with a hit somewhere; the sample as a whole holds those more often. Where a SMILES comes first, the peptide text is derived from it. The star is where a group is joined. Boc = CC(C)(C)OC(=O)*
Experimental readout: growth inhibition (%)
Give the value in % but do not write % after it.

Query: Tell me its growth inhibition given CCC(=O)C(=O)c1ccccc1 as the entry.
Result: -1.05

Query: Please report growth inhibition for the following molecule: O=C(O)c1ccccc1/C=N\NC1=NCCCCN1
Result: -27.6

Query: Identify measured growth inhibition corresponding to COC(=O)C(Cc1ccccc1)NC(=O)C(Cc1ccccc1)NC(=O)OC(C)(C)C (stereo not drawn) (Boc-Phe-Phe-OMe; configuration not given here)
Result: 0.15

Query: Supply reported growth inhibition belonging to this molecule: CO[C@H]1C=C[C@]23c4cc5c(cc4CN(CC2O)[C@@H]3C1)OCO5 (stereo partly specified)
Result: 2.55

Query: Supply recorded growth inhibition for COc1ccc(CC(N)C(=O)OCCCl)cc1 (stereo unspecified) here.
Result: 0.3

Query: Return growth inhibition (reported value) for this molecule: CN(C(N)=O)C1CCCC1
Result: 9.4

====

Assay procedure: NCI Yeast Anticancer Drug Screen. Data for the sgs1 mgt1 strain (AID 161);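 further: 0% = growth of cultures given vehicle only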
Details: S. cerevisiae sgs1 mgt1 strain, at 50.0 µM, hits give high values
This is part of a sample that, as a whole, favours compounds with a hit. Of some 79,000 tested, about 15% had one in any assay.
So I've got a bunch of compounds here, and I need their growth inhibition values.
A number alone suffices; assume %.

Query: Quick one: give measured growth inhibition for Cc1ccc(C(=O)Oc2ccccc2)cc1N=NN(C)C
Result: -56.8

Query: Fill in reported growth inhibition for this entry: Cc1ccc2nc3c(C)c(Cl)c(=O)cc-3sc2c1
Result: 7.4

Query: Give reported growth inhibition value for O=C(CC(=O)c1ccccc1)Nc1ccc(-c2nc3ccccc3c(=O)[nH]2)cc1
Result: 19.9

Query: Name the recorded growth inhibition of the compound listed here: Cc1cc(NC(C)C)c(C)cc1NC(C)C
Result: 47.1

Query: Dear colleague, please send me the reported growth inhibition for C=C(C)C(=O)Oc1ccccc1-c1ccccc1 when you can.
Result: -5.5

Query: Tell me growth inhibition reported for CCCCNC(=O)NC1CC(OC2CC(O)(C(C)=O)Cc3c(O)c4c(c(O)c32)C(=O)c2c(OC)cccc2C4=O)OC(C)C1O (stereo unspecified)
Result: 22.9

Query: Return growth inhibition for the following compound: c1ccc2nc3c(nc2c1)sc1nc2ccccc2n13
Result: -11.9

Query: Give the value of growth inhibition reported for the following: CN(C)CCCCl
Result: 8.75

Query: Give the reported growth inhibition for this compound. Nc1nc(N)c2c(n1)CCC(CNc1ccc(C(=O)NC(CCC(=O)O)C(=O)O)cc1)C2 (stereo unspecified)
Result: 38.3

Query: Give me measured growth inhibition, please, for this compound: CC(N)C(=O)NC(C)P(=O)(O)O (stereo unspecified)
Result: -7.15

Query: Using known records, supply growth inhibition for Nc1nc(-c2ccccc2)c(N=Nc2ccc([N+](=O)[O-])cc2Cl)s1
Result: 4.4
